Parameter: log10 vapour pressure (mmHg)
Numbers only.

{"columns": ["Compound", "Measured"],
 "data": [
  ["CC(C)c1ccccc1", 0.653],
  ["O=P(O)(O)CCCl", -7.01],
  ["CC(C)C1CCCCC1", 0.681]
]}

Respectfully, I request log10 vapour pressure (mmHg) for each entry included below.
1. c1cc[nH]c1
2. CCCCCCCCCCCF
3. C=CC1CC=CCC1 (centres undefined)
4. O=C(Nc1ccc(F)cc1F)c1cccnc1Oc1cccc(C(F)(F)F)c1
5. CCC=C(C)CC

## Result
1: 0.922; 2: -0.682; 3: 1.2; 4: -7.5; 5: 1.91

Respectfully, I request log10 vapour pressure (mmHg) for each entry included below.
1. C(=C\c1ccccc1)/c1ccccc1
2. Cc1cccc([N+](=O)[O-])c1C
3. COC(=O)CC(C)C
4. CC(C)C(C(=O)OC(C#N)c1cccc(Oc2ccc(Br)cc2)c1)c1ccc(OC(F)F)cc1 (centres undefined)

## Result
[-2.61, -0.445, 1.15, -8.92]

Respectfully, I request log10 vapour pressure (mmHg) for each entry included below.
1. CC(C)N(Cc1ccccc1)C(=O)C(C)(C)C
2. CC(=O)CC(C)(C)O

## Result
1. -3.18
2. 0.233

* * *

Exercise: for every item that follows, state its recorded melting point.
One number for each entry, in °C.

{"columns": ["Compound", "Endpoint unit", "Measured"],
 "data": [
  ["C1CCC2CCCCC2C1 (configuration not stated)", "°C", -38.7],
  ["CCCCC(CC)CO (configuration not stated)", "°C", -70],
  ["CCOC(=O)C1N=C(c2ccccc2F)c2cc(Cl)ccc2NC1=O (configuration not stated)", "°C", 194],
  ["CO[C@H]1[C@@H](O)[C@@H](C)O[C@H](O[C@H]2[C@H](Oc3cccc4c(O)c5c(=O)oc6ccc(C)c7c(=O)oc(c34)c5c67)O[C@H](C)[C@H](O)[C@@H]2O)[C@@H]1O", "°C", 185],
  ["CC(O)C(Cl)(Cl)Cl (configuration not stated)", "°C", 50.5],
  ["C1=C(c2ccccc2)CCCC1", "°C", -11],
  ["O=C(O)c1cccc(Cl)c1Cl", "°C", 169],
  ["N#Cc1sc2c(=O)c3ccccc3c(=O)c=2sc1C#N", "°C", 225],
  ["CC1(C)[C@H](C(=O)O[C@H](C#N)c2cccc(Oc3ccccc3)c2)[C@@H]1C=C(Br)Br", "°C", 100],
  ["Cc1cc(C)c(Br)c(C)c1Br", "°C", 65.5]
]}

Respectfully, I request melting point for each entry included below.
1. CC=Cc1ccc(O)c(OC)c1
2. O=C(OC[C@H]1O[C@@H](Oc2ccccc2CO)[C@H](O)[C@@H](O)[C@@H]1O)c1ccccc1

## Result
11.8
180

* * *

Exercise: for every item that follows, state its recorded boiling point.
One number for each entry, in °C.

Here is how some molecules turned out for boiling point.
{"columns": ["Molecule", "boiling point (°C)"],
 "data": [
  ["CCC(C)C(C)C(C)CC (configuration not stated)", 162],
  ["CCCCc1ccc2ccccc2c1", 292]
]}

Respectfully, I request boiling point for each entry included below.
1. CCCN(CCC)CCC
2. FC1C(F)(F)C(F)(F)C(F)(F)C(F)(F)C1(F)F
3. CC(C)C(N)=O
4. O=C(Cl)c1cccc([N+](=O)[O-])c1
5. Cc1c(Cl)cc(Cl)c(Cl)c1Cl
6. CCCC(Cl)Cl
7. CCC(CC)OC(C)=O
8. CCCCCCC(C)O (racemic)

## Result
1: 156; 2: 62; 3: 218; 4: 276; 5: 276; 6: 114; 7: 133; 8: 179

Respectfully, I request boiling point for each entry included below.
1. Clc1nc(Cl)nc(Cl)n1
2. N#Cc1c(Cl)c(Cl)c(Cl)c(C#N)c1Cl
3. C1CCCSCC1
4. C[C@H](N)Cc1ccccc1

## Result
1. 192
2. 350
3. 174
4. 203

Respectfully, I request boiling point for each entry included below.
1. C1CCCOCC1
2. Oc1ccccc1-c1ccccc1O

## Result
1. 119
2. 320

## Task Read off the recorded boiling point for CC(C)c1ccncc1
## Result 178

* * *

Parameter: melting point (°C)
Answers are plain numbers, in °C.

Respectfully, I request melting point for each entry included below.
1. CCCCC
2. O=C=NC1CCCCC1
3. CCOC(=O)c1cc([N+](=O)[O-])cc([N+](=O)[O-])c1
4. N=C(N)NC(=O)c1nc(Cl)c(N)nc1N
5. CCOC(=O)Nc1cccc(OC(=O)Nc2ccccc2)c1
6. CC(C)c1ccncc1
7. FC(F)(Cl)Br
8. O=[N+]([O-])c1cncn1CCN1CCOCC1

## Result
[-130, -80, 94, 241, 120, -54.9, -160, 110]

Respectfully, I request melting point for each entry included below.
1. CCOc1cccc(C(=O)O)c1
2. CCCC(CCC)C(N)=O
3. NC(=O)c1ccccc1O
4. O=C(O)C(I)I
5. O=C(O)CCCCBr

## Result
137
125
142
110
39

* * *

Parameter: melting point (°C)
Give bare numbers, in °C.

{"columns": ["Molecule", "Parameter", "Measured"],
 "data": [
  ["O=C(O)c1ccc(Br)cc1", "melting point", 254],
  ["CC(C)(C(=O)O)n1nnc2ccccc21", "melting point", 182],
  ["BrC(Br)(Br)Br", "melting point", 90.1],
  ["O=P(OCC(Br)CBr)(OCC(Br)CBr)OCC(Br)CBr (configuration not stated)", "melting point", 5.5],
  ["C#CCCCCCCC(=O)O", "melting point", 19],
  ["O=C(c1ccccc1)c1ccccc1O", "melting point", 40],
  ["CCCCOC(=O)c1ccccc1O", "melting point", -5.9],
  ["O=C(O)CCOc1cccc2ccccc12", "melting point", 146],
  ["COc1cccc([N+](=O)[O-])c1C", "melting point", 55],
  ["CC(Oc1ccccc1Cl)C(=O)O (configuration not stated)", "melting point", 114]
]}

Respectfully, I request melting point for each entry included below.
1. CC(=O)C(C)C
2. C#CCCCCCC
3. c1ccc(CN2CCOCC2)cc1

## Result
[-92, -79.3, 194]

Respectfully, I request melting point for each entry included below.
1. CCOC(=O)Cc1c[nH]c2ccccc12
2. C=CC(=O)OCCOCC
3. CC(=O)Nc1cccc(C)c1
4. Nc1c(F)c(F)c(F)c(F)c1F
5. Cc1nc2ccccc2c(=O)n1-c1ccccc1Cl

## Result
[44.5, -47, 65.5, 35.5, 127]

Respectfully, I request melting point for each entry included below.
1. BrC(c1ccccc1)c1ccccc1
2. c1ccc(-c2cc3ccccc3[nH]2)cc1
3. O=C(Nc1ccc(F)cc1F)c1cccnc1Oc1cccc(C(F)(F)F)c1
4. C[C@@H]1Cc2c(Cl)cc(C(=O)N[C@@H](Cc3ccccc3)C(=O)O)c(O)c2C(=O)O1
5. C=C(C)c1ccc(C)cc1

## Result
[45, 190, 160, 169, -20]

* * *

Exercise: for every item that follows, state its recorded log10 Koa.
One number for each entry.

{"columns": ["Molecule", "Measured"],
 "data": [
  ["Clc1ccc(-c2c(Cl)ccc(Cl)c2Cl)cc1", 8.41],
  ["C1CCNCC1", 4.04],
  ["Clc1ccc(Cl)c2c(Cl)cccc12", 7.56],
  ["ClC1=C(Cl)[C@]2(Cl)[C@H]3[C@H]([C@@H]4C=C[C@H]3C4)[C@@]1(Cl)C2(Cl)Cl (racemic)", 8.08],
  ["CCC(=O)CC", 3.2]
]}

Respectfully, I request log10 Koa for each entry included below.
1. CCCCCC
2. Clc1cc2oc3c(Cl)c(Cl)c(Cl)c(Cl)c3c2c(Cl)c1Cl
3. COC=O

## Result
1: 2.4; 2: 11.4; 3: 1.75

Respectfully, I request log10 Koa for each entry included below.
1. CCCCCOC(C)=O
2. Clc1ccc(Cl)c(-c2c(Cl)cccc2Cl)c1Cl
3. ClC1=C(Cl)C2(Cl)[C@@H]3C[C@@H](Cl)[C@@H](Cl)[C@@H]3C1(Cl)C2(Cl)Cl (mixture of isomers)
4. ClC(Cl)(Cl)Cl
5. OCCCl
6. CCCCl
7. COC
8. Clc1cc(Cl)c(-c2ccc(Cl)c(Cl)c2Cl)cc1Cl

## Result
1. 4.12
2. 8.53
3. 8.89
4. 2.79
5. 4.3
6. 2.24
7. 1.37
8. 9.8

* * *

Parameter: melting point

{"columns": ["Molecule", "Parameter", "Measured"],
 "data": [
  ["O[C@H]1[C@H]2c3cc4c(cc3CN3CCC(=C[C@@H]1O)[C@H]23)OCO4", "melting point", "280 °C"]
]}

Respectfully, I request melting point for each entry included below.
1. CC(C)NCC(O)COc1cccc2[nH]ccc12 (centres undefined)
2. CC(=O)Nc1ccccc1
3. CCCC(=O)O

## Result
["171 °C", "114 °C", "-5.7 °C"]
